Molecular target: Mint2 PARM 364-570 (Y524W, Y543E) (Homo sapiens, UniProt Q99767, Y524W/Y543E)
Sequence (Q99767 364-570 Y524W/Y543E): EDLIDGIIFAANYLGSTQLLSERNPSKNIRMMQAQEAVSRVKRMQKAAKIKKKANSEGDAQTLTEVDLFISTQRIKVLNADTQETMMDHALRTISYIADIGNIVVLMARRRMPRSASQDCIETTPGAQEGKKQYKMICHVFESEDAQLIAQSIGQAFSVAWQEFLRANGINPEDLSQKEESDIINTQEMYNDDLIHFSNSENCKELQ
Assay: biochemical
Where no end group is shown, it is not given here.
readout: Ki (µM)
The reply should be a number in µM, with the unit left off.

query: Could you share which Ki value was measured for NGYENPTYKFFE [APPWT (12-mer)] ?
result: 1.1
